Provenance of the data: patent US9416128B2

measurementTarget: hNaV1.1 (SCN1A) (Homo sapiens, UniProt P35498)
assayDetails: Use-dependent inhibition of the CNS NaV1.1 sodium channel
Type: cell-based
recordedConditions: % inhibition, use-dependent block at 10 uM; 25 Hz; read-out: Nav1.1 UDB 25 Hz 10 uM
readoutKind: inhibition at 10 µM (%)

>>> measured("Cc1cc(-c2ccc3c(c2)CN(Cc2ncccn2)C(=O)O3)ccc1OC(F)(F)F [Example 5]")
15.3
>>> measured("Cc1csc(CN2Cc3cc(-c4ccc(OC(F)(F)F)cc4F)ccc3OC2=O)n1 [Example 55]")
55
>>> measured("Cc1cc(C(F)(F)F)ccc1-c1ccc2c(c1)CN(Cc1ncccn1)C(=O)O2 [Example 37]")
67.7
>>> measured("CC1c2cc(-c3ccc(OC(F)(F)F)cc3)ccc2OC(=O)N1Cc1ncccn1 (centres unmarked) [Example 48]")
73.3
>>> measured("COc1cc(C(F)(F)F)ccc1-c1ccc2c(c1)CN(Cc1ncc(C)cn1)C(=O)O2 [Example 42]")
47.9
>>> measured("O=C1Oc2ccc(-c3ccc(OC(F)(F)F)cc3)cc2CN1CCc1ncccn1 [Example 16]")
52.2
>>> measured("Cc1csc(CN2Cc3cc(-c4ccc(Cl)c(F)c4)ccc3OC2=O)n1 [Example 59]")
39.9
>>> measured("Cc1cnc(CN2Cc3cc(-c4ccc(OC(F)(F)F)cc4F)ccc3OC2=O)nc1 [Example 14]")
43.8

----------
measurementTarget: hNaV1.1 (SCN1A) (Homo sapiens)
assayDetails: Use-dependent inhibition of the CNS NaV1.1 sodium channel
Type: cell-based
recordedConditions: % inhibition, use-dependent block at 1 uM; 25 Hz; read-out: Nav1.1 UDB 25 Hz 1 uM
readoutKind: inhibition at 1 µM (%)

>>> measured("COc1cc(OC(F)(F)F)ccc1-c1ccc2c(c1)CN(Cc1nc(C)cs1)C(=O)O2 [Example 58]")
7.8
>>> measured("CC(C)Oc1cc(C(F)(F)F)ccc1-c1ccc2c(c1)CN(Cc1ncccn1)C(=O)O2 [Example 25]")
31.7
>>> measured("Cc1cnc(CN2Cc3cc(-c4ccc(OC(F)(F)F)cc4)ccc3OC2=O)nc1 [Example 12]")
7.5
>>> measured("Cc1cc(C(F)(F)F)ccc1-c1ccc2c(c1)CN(Cc1ncccn1)C(=O)O2 [Example 37]")
7.3
>>> measured("CCCOc1cc(C(F)(F)F)ccc1-c1ccc2c(c1)CN(Cc1ncccn1)C(=O)O2 [Example 27]")
28.4
>>> measured("CC(C)Oc1cc(OC(F)(F)F)ccc1-c1ccc2c(c1)CN(Cc1ncccn1)C(=O)O2 [Example 39]")
39.1
>>> measured("CCOc1cc(C(F)(F)F)ccc1-c1ccc2c(c1)CN(Cc1ncccn1)C(=O)O2 [Example 35]")
37.6
>>> measured("O=C1Oc2ccc(-c3ccc(OC(F)(F)F)c(F)c3)cc2CN1Cc1ncccn1 [Example 10]")
35

----------
Catalogue of compounds with associated inhibition at 10 µM
measurementTarget: hNaV1.2 (SCN2A) (Homo sapiens, UniProt Q99250)
Construct: expressed in transfected cells
Sequence (Q99250 whole entry): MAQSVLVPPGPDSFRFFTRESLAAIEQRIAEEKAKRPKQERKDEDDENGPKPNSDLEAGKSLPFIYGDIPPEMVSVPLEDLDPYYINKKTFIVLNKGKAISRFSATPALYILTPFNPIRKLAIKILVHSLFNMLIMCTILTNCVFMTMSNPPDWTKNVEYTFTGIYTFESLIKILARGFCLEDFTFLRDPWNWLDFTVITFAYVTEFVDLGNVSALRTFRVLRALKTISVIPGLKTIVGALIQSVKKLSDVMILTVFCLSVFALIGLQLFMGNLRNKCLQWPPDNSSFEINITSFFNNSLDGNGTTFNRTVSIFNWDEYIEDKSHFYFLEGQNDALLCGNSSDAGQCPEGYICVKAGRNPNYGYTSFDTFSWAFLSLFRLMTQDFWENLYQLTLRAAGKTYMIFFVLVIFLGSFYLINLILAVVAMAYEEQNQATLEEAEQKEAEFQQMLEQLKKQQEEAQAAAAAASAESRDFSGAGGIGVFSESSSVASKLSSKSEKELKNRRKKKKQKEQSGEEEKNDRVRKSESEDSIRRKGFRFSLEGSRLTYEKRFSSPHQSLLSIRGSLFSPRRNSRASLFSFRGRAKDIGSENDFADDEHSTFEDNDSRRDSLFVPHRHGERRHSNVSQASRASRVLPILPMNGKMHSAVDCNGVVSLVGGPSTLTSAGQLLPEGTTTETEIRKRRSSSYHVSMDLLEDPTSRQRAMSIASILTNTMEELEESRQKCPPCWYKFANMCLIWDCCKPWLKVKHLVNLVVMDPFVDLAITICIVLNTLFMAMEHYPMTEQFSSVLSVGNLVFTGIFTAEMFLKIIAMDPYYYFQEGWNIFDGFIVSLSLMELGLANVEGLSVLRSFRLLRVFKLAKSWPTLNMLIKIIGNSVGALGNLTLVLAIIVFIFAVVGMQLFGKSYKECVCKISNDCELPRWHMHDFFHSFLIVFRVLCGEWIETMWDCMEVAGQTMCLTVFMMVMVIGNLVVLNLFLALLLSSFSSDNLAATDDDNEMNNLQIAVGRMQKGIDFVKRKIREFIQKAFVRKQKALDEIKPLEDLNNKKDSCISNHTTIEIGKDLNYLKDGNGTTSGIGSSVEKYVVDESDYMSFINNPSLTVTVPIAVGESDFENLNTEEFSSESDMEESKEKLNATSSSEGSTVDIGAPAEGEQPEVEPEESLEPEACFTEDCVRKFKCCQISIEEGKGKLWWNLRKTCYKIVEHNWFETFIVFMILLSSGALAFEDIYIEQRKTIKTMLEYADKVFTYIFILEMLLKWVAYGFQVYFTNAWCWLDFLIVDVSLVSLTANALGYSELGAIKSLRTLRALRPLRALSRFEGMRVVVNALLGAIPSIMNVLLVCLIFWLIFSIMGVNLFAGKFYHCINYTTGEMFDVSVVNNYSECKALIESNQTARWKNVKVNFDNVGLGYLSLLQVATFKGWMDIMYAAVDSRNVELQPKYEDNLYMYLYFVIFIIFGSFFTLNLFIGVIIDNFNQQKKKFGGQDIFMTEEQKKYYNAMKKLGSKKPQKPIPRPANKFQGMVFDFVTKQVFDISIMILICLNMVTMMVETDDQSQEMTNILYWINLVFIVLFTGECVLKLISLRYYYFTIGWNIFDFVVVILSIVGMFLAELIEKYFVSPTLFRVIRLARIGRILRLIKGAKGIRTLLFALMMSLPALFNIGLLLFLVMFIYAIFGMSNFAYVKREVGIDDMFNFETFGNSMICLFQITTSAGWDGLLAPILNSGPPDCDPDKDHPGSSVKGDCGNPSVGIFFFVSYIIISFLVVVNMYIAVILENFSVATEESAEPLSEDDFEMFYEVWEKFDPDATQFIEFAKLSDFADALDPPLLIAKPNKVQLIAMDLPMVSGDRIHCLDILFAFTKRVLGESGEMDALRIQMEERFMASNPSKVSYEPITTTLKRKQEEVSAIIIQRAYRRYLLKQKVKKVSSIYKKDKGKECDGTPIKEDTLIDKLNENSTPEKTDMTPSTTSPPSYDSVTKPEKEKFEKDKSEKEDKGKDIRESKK
Sequence (Q07699 19-218 partner): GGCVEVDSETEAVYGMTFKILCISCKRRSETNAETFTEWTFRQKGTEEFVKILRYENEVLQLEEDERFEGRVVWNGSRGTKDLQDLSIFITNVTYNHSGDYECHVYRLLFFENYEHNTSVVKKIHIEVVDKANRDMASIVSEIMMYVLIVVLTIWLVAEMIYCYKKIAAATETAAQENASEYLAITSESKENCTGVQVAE
Sequence (O60939 30-215 partner): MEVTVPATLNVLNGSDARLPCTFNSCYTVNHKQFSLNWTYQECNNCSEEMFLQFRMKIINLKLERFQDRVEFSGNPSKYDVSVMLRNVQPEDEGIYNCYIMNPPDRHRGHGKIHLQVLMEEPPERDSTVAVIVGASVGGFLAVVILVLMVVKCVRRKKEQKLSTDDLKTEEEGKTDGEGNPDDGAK
assayDetails: Use-dependent inhibition of the CNS NaV1.2 sodium channel
Format: cell-based
recordedConditions: HEK-293; % inhibition, use-dependent block at 10 uM; 25 Hz; read-out: Nav1.2 UDB 25 Hz 10 uM
Experimental: HEK-293 cells stably expressing wild-type (WT) hNaV1.2 (SCN2A NCBI # NM_021007.2, SCN1B NCBI # NM_001037.4, SCN2B NCBI # NM_004588.2) were used to record INa. […] Cells are allowed to stabilize for 10 min after establishment of the whole-cell configuration before current is measured. […] Use-dependent block of NaV1.2 peak current is measured during pulse number 20 of a voltage pulse train (0 mV, 20 ms, 20 pulses, 25 Hz) from a holding potential of −120 mV. […]
readoutKind: inhibition at 10 µM (%)

>>> measured("COc1cc(C(F)(F)F)ccc1-c1ccc2c(c1)CN(Cc1ncc(C)cn1)C(=O)O2")
47.4
>>> measured("COc1cc(OC(F)(F)F)ccc1-c1ccc2c(c1)CN(Cc1nccc(C)n1)C(=O)O2")
45.7
>>> measured("Cc1ccnc(CN2Cc3cc(-c4ccc(OC(F)(F)F)cc4F)ccc3OC2=O)n1")
41
>>> measured("COc1cc(OC(F)(F)F)ccc1-c1ccc2c(c1)CN(Cc1cccc(C)n1)C(=O)O2")
77.2
>>> measured("COc1cc(OC(F)(F)F)ccc1-c1ccc2c(c1)CN(Cc1ccccn1)C(=O)O2")
55.6
>>> measured("O=C1Oc2ccc(-c3ccc(C(F)(F)F)cc3)cc2CN1Cc1ccccn1")
71.4
>>> measured("Cc1cc(OC(F)(F)F)ccc1-c1ccc2c(c1)CN(Cc1ncccn1)C(=O)O2")
11
>>> measured("O=C1Oc2ccc(-c3ccc(OC(F)(F)F)cc3)cc2CN1CCc1ncccn1")
52.9
>>> measured("O=C1Oc2ccc(-c3ccc(OC(F)(F)F)c(F)c3)cc2CN1Cc1ncccn1")
75
>>> measured("O=C1Oc2ccc(-c3ccc(C(F)(F)F)cc3)cc2CN1Cc1ccncc1")
28.1
>>> measured("Cc1cc(OC(F)(F)F)ccc1-c1ccc2c(c1)CN(Cc1ccccn1)C(=O)O2")
56
>>> measured("Cc1cnc(CN2Cc3cc(-c4ccc(OC(F)(F)F)cc4F)ccc3OC2=O)nc1")
59.9
>>> measured("Cc1cnc(CN2Cc3cc(-c4ccc(OC(F)(F)F)cc4)ccc3OC2=O)nc1")
68.8
>>> measured("COc1cc(C(F)(F)F)ccc1-c1ccc2c(c1)CN(Cc1ncccn1)C(=O)O2")
78.5
>>> measured("Cc1cc(C(F)(F)F)ccc1-c1ccc2c(c1)CN(Cc1ncccn1)C(=O)O2")
27.1
>>> measured("O=C1Oc2ccc(-c3ccc4c(c3)OC(F)(F)O4)cc2CN1Cc1ncccn1")
71.1
>>> measured("COc1cc(OC(F)(F)F)ccc1-c1ccc2c(c1)CN(Cc1nc(C)cs1)C(=O)O2")
58.7
